Origin of the recorded values: ChEMBL document CHEMBL6083262

- assay-notes: Hemolytic activity in human RBC incubated for 4 hrs
- Type: toxicity, cell-based
- details: erythrocyte
Non-standard residues stand in square brackets, D forms with d. Residues, ends and D or L forms follow the SMILES beside them. ξ: configuration not given here. ξY = NC(Cc1ccc(O)cc1)C(=O)O; ξR = N=C(N)NCCCC(N)C(=O)O; ξD = NC(CC(=O)O)C(=O)O; ξN = NC(=O)CC(N)C(=O)O; Nleu = CC(C)CNCC(=O)O; ξI = CCC(C)C(N)C(=O)O; ξL = CC(C)CC(N)C(=O)O; Nlys = NCCCCNCC(=O)O; ξK = NCCCCC(N)C(=O)O; ξV = CC(C)C(N)C(=O)O; ξP = O=C(O)C1CCCN1
# maps each entry to its MHC
assay-readout: MHC

1) CC[C@H](C)[C@H](NC(=O)[C@H](CCCNC(=N)N)NC(=O)C(CCCNC(=N)N)NC(=O)C1CCCN1C(=O)C1CCCN1C(=O)C(CCCNC(=N)N)NC(=O)C1CCCN1C(=O)C(CCCNC(=N)N)NC(=O)C1CCCN1C(=O)C(CC(C)C)NC(=O)C(Cc1ccc(O)cc1)NC(=O)C1CCCN1C(=O)C1CCCN1C(=O)C(CCCCN)NC(=O)C(CC(=O)O)NC(=O)C(N)C(C)C)C(=O)N[C@@H](Cc1ccc(O)cc1)C(=O)N[C@@H](CC(N)=O)C(=O)N[C@@H](CCCNC(=N)N)C(N)=O (stereo partly drawn) (H-[ξV][ξD][ξK][ξP][ξP][ξY][ξL][ξP][ξR][ξP][ξR][ξP][ξP][ξR]RIYNR-NH2)    > 1000 µg/mL
2) CCC(C)C(NC(=O)C(CCCNC(=N)N)NC(=O)C(CCCNC(=N)N)NC(=O)C1CCCN1C(=O)C1CCCN1C(=O)C(CCCNC(=N)N)NC(=O)C1CCCN1C(=O)C(CCCNC(=N)N)NC(=O)C1CCCN1C(=O)[C@H](CC(C)C)NC(=O)[C@H](Cc1ccc(O)cc1)NC(=O)[C@@H]1CCCN1C(=O)[C@@H]1CCCN1C(=O)[C@H](CCCCN)NC(=O)[C@H](CC(=O)O)NC(=O)[C@@H](N)C(C)C)C(=O)NC(Cc1ccc(O)cc1)C(=O)NC(CC(N)=O)C(=O)NC(CCCNC(=N)N)C(N)=O (stereo partly drawn) (H-VDKPPYL[ξP][ξR][ξP][ξR][ξP][ξP][ξR][ξR][ξI][ξY][ξN][ξR]-NH2)    > 1000 µg/mL
3) CC(C)C[C@H](NC(=O)[C@H](CC(C)C)NC(=O)[C@H](CC(C)C)NC(=O)[C@@H](CCCCN)NC(=O)[C@H](CC(C)C)NC(=O)[C@H](CC(C)C)NC(=O)[C@@H](CCCCN)NC(=O)[C@H](CC(C)C)NC(=O)[C@H](CC(C)C)NC(=O)[C@@H](CCCCN)NC(=O)[C@H](N)CCCCN)C(N)=O (H-[dK][dK]LL[dK]LL[dK]LLL-NH2)    1000 µg/mL
4) CCC(C)C(NC(=O)C(CCCNC(=N)N)NC(=O)C(CCCNC(=N)N)NC(=O)C1CCCN1C(=O)C1CCCN1C(=O)C(CCCNC(=N)N)NC(=O)C1CCCN1C(=O)C(CCCNC(=N)N)NC(=O)[C@@H]1CCCN1C(=O)[C@H](CC(C)C)NC(=O)[C@H](Cc1ccc(O)cc1)NC(=O)[C@@H]1CCCN1C(=O)[C@@H]1CCCN1C(=O)[C@H](CCCCN)NC(=O)[C@H](CC(=O)O)NC(=O)[C@@H](N)C(C)C)C(=O)NC(Cc1ccc(O)cc1)C(=O)NC(CC(N)=O)C(=O)NC(CCCNC(=N)N)C(N)=O (stereo partly drawn) (H-VDKPPYLP[ξR][ξP][ξR][ξP][ξP][ξR][ξR][ξI][ξY][ξN][ξR]-NH2)    > 1000 µg/mL
5) CCC(C)C(NC(=O)C(CCCNC(=N)N)NC(=O)C(CCCNC(=N)N)NC(=O)C1CCCN1C(=O)C1CCCN1C(=O)C(CCCNC(=N)N)NC(=O)C1CCCN1C(=O)[C@H](CCCNC(=N)N)NC(=O)[C@@H]1CCCN1C(=O)[C@H](CC(C)C)NC(=O)[C@H](Cc1ccc(O)cc1)NC(=O)[C@@H]1CCCN1C(=O)[C@@H]1CCCN1C(=O)[C@H](CCCCN)NC(=O)[C@H](CC(=O)O)NC(=O)[C@@H](N)C(C)C)C(=O)NC(Cc1ccc(O)cc1)C(=O)NC(CC(N)=O)C(=O)NC(CCCNC(=N)N)C(N)=O (stereo partly drawn) (H-VDKPPYLPR[ξP][ξR][ξP][ξP][ξR][ξR][ξI][ξY][ξN][ξR]-NH2)    > 1000 µg/mL
6) CC(C)C[C@H](NC(=O)CN(CC(C)C)C(=O)[C@H](CC(C)C)NC(=O)CN(CCCCN)C(=O)[C@H](CC(C)C)NC(=O)CN(CC(C)C)C(=O)[C@H](CCCCN)NC(=O)CN(CC(C)C)C(=O)[C@H](CC(C)C)NC(=O)CN(CCCCN)C(=O)[C@@H](N)CCCCN)C(N)=O (H-K[Nlys]L[Nleu]K[Nleu]L[Nlys]L[Nleu]L-NH2)    > 2000 µg/mL
7) CCC(C)C(NC(=O)C(CCCNC(=N)N)NC(=O)C(CCCNC(=N)N)NC(=O)C1CCCN1C(=O)C1CCCN1C(=O)C(CCCNC(=N)N)NC(=O)C1CCCN1C(=O)C(CCCNC(=N)N)NC(=O)C1CCCN1C(=O)C(CC(C)C)NC(=O)C(Cc1ccc(O)cc1)NC(=O)C1CCCN1C(=O)C1CCCN1C(=O)C(CCCCN)NC(=O)C(CC(=O)O)NC(=O)C(N)C(C)C)C(=O)NC(Cc1ccc(O)cc1)C(=O)NC(CC(N)=O)C(=O)NC(CCCNC(=N)N)C(N)=O (stereo not drawn) (H-VDKPPYLPRPRPPRRIYNR-NH2; configuration not given here)    > 1000 µg/mL
8) CCC(C)C(NC(=O)C(CCCNC(=N)N)NC(=O)C(CCCNC(=N)N)NC(=O)C1CCCN1C(=O)C1CCCN1C(=O)C(CCCNC(=N)N)NC(=O)[C@@H]1CCCN1C(=O)[C@H](CCCNC(=N)N)NC(=O)[C@@H]1CCCN1C(=O)[C@H](CC(C)C)NC(=O)[C@H](Cc1ccc(O)cc1)NC(=O)[C@@H]1CCCN1C(=O)[C@@H]1CCCN1C(=O)[C@H](CCCCN)NC(=O)[C@H](CC(=O)O)NC(=O)[C@@H](N)C(C)C)C(=O)NC(Cc1ccc(O)cc1)C(=O)NC(CC(N)=O)C(=O)NC(CCCNC(=N)N)C(N)=O (stereo partly drawn) (H-VDKPPYLPRP[ξR][ξP][ξP][ξR][ξR][ξI][ξY][ξN][ξR]-NH2)    > 1000 µg/mL
